Tested on: porcine P-gp
Assay: Bidirectional transport assay of enrofloxacin in MDCK-pAbcb1 cell monolayers
Assay type: in vitro ADME, pig
Settings: pig, MDCK-MDR1; MDCK-pAbcb1 cells, enrofloxacin 12 μM alone, 120 min, mean ± SEM, n = 3
MEASURED METRIC: Papp B→A at 120 min, 12 μM (×10⁻⁶ cm/s)
Give bare numbers, in ×10⁻⁶ cm/s.

### Prompt Returns the measured Papp B→A at 120 min, 12 μM for the input molecule. Input: CCN1CCN(c2cc3c(cc2F)c(=O)c(C(=O)O)cn3C2CC2)CC1
### Response 19.9

----------
Test: in vivo
Conditions: pig, plasma, po, 10 mg/kg
MEASURED METRIC: Tmax (h)
One number for each entry, in h.

### Prompt Returns the measured Tmax for the input compound. Input: CCN1CCN(c2cc3c(cc2F)c(=O)c(C(=O)O)cn3C2CC2)CC1
### Response 2.01

----------
Test: Bidirectional transport assay of enrofloxacin in MDCK parental cell monolayers
Format: in vitro ADME, canine
Conditions: dog; MDCK cells, enrofloxacin 12 μM alone; Papp B→A / Papp A→B
MEASURED METRIC: efflux ratio at 120 min, 12 μM
Numbers only.

### Prompt Returns the measured efflux ratio at 120 min, 12 μM for the input compound. Input: CCN1CCN(c2cc3c(cc2F)c(=O)c(C(=O)O)cn3C2CC2)CC1
### Response 1.04

----------
Test: Bidirectional transport assay of enrofloxacin in MDCK parental cell monolayers
Type: in vitro ADME, canine
Conditions: dog; MDCK cells, enrofloxacin 12 μM alone, 120 min, mean ± SEM, n = 3
MEASURED METRIC: Papp B→A at 120 min, 12 μM (×10⁻⁶ cm/s)
Give bare numbers, in ×10⁻⁶ cm/s.

### Prompt Returns the measured Papp B→A at 120 min, 12 μM for the input compound. Input: CCN1CCN(c2cc3c(cc2F)c(=O)c(C(=O)O)cn3C2CC2)CC1
### Response 12.9
